Reported values of Selectivity v. Coll-3 for individual entries
Target: gelatinase B (UniProt P14780 107-707, limits assumed)
Sequence (P14780 107-707 limits assumed): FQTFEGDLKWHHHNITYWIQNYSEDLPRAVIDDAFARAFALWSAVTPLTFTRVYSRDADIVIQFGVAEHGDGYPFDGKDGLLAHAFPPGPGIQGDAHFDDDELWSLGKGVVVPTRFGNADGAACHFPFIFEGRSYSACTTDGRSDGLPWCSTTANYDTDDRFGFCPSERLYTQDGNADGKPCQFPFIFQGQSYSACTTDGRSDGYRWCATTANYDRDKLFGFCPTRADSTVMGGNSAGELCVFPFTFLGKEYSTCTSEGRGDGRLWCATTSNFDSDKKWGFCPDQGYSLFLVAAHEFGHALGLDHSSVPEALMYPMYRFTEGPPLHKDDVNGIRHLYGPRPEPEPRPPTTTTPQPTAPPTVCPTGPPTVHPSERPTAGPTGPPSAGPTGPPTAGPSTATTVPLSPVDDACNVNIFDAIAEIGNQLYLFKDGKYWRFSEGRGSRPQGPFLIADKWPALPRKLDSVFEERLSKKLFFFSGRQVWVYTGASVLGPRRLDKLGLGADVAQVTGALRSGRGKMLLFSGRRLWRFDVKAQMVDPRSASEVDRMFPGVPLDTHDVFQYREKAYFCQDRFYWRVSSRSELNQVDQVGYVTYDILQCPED
Assay: cell-based or functional assay
*1 amine or outer side, *2 acyl side, *3 side chain or, on linkers, in order; H or OH if unused. [ ]: non-standard residue; d: D form. The star is where a group is joined. Dnp = O=[N+]([O-])c1ccc(*)c([N+](=O)[O-])c1; C(Me) = CSC[C@H](N[*:1])C(=O)[*:2]

{"columns": ["binder", "Selectivity v. Coll-3 / unitless"],
 "data": [
  ["Dnp-GPLPFRV[C(Me)]-NH2 (SMILES CSC[C@H](NC(=O)[C@@H](NC(=O)[C@H](CCCNC(=N)N)NC(=O)[C@H](Cc1ccccc1)NC(=O)[C@@H]1CCCN1C(=O)[C@H](CC(C)C)NC(=O)[C@@H]1CCCN1C(=O)CNc1ccc([N+](=O)[O-])cc1[N+](=O)[O-])C(C)C)C(N)=O) [Dnp-GPLPFRVC(Me)-NH2]", 21],
  ["Dnp-GPSGIHL-NH2 (SMILES CC[C@H](C)[C@H](NC(=O)CNC(=O)[C@H](CO)NC(=O)[C@@H]1CCCN1C(=O)CNc1ccc([N+](=O)[O-])cc1[N+](=O)[O-])C(=O)N[C@@H](Cc1c[nH]cn1)C(=O)N[C@@H](CC(C)C)C(N)=O) [Dnp-GPSGIHL-NH2]", 6],
  ["Dnp-GPSELKG-NH2 (SMILES CC(C)C[C@H](NC(=O)[C@H](CCC(=O)O)NC(=O)[C@H](CO)NC(=O)[C@@H]1CCCN1C(=O)CNc1ccc([N+](=O)[O-])cc1[N+](=O)[O-])C(=O)N[C@@H](CCCCN)C(=O)NCC(N)=O) [Dnp-GPSELKG-NH2]", 4]
]}
